Method Description: endothelial E-selectin expression blockers – imaging, HUVEC, immunofluorescence, MLSMR starter and 10KST1 sets, primary screen (AID 487);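 note: signal is fraction of cell area covered by stained E-selectin grains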
Measurement Conditions: HUVEC TNFalpha-induced E-selectin immunofluorescence imaging, at 2 µM; stronger effect = higher value
Where a SMILES comes first, the peptide text is derived from it. The star is where a group is joined. Boc = CC(C)(C)OC(=O)*
# inhibition listing for each entry below
Property Measured: inhibition (%)

O=C1C(Cl)=C(N2CCCCC2)C(=O)N1c1ccccc1Cl | -57.1
Clc1cccc(N2CCN(Cc3nc(-c4ccccc4)no3)CC2)c1 | -43.3
COC(=O)CNc1nc(C2CC2)nc2c1nnn2Cc1ccccc1Cl | 16.5
COC(=O)c1ccc(NC(=O)C(C)N2C(=O)c3ccccc3C2=O)cc1 (stereo not given) | -39.9
CC(NC(=O)OC(C)(C)C)C(=O)N1CCCC1C(=O)NC(Cc1ccccc1)C(N)=O (stereo not drawn) (Boc-Ala-Pro-Phe-NH2; configuration not given here) | -30.7
COc1ccc(C(=O)Cn2nnc(-c3cccs3)n2)cc1 | -0.6
CC(c1ccco1)N(Cc1ccco1)C(=O)Nc1ccccc1 (stereo not given) | -45.1
COc1cccc(/C=N/n2cnnc2)c1OCc1ccccc1 | 2.5
CCN(CC)S(=O)(=O)c1ccc(S(=O)(=O)N(Cc2ccccn2)Cc2ccco2)cc1 | -68.2
Clc1ss/c(=N\c2ccccn2)c1Cl | -39.9

----------
Method Description: endothelial E-selectin expression blockers – imaging, HUVEC, immunofluorescence, MLSMR starter and 10KST1 sets, primary screen (AID 487);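 note: signal is fraction of cell area covered by stained E-selectin grains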
Measurement Conditions: HUVEC TNFalpha-induced E-selectin immunofluorescence imaging, at 2 µM; stronger effect = higher value
Listed here are compounds together with their documented inhibition.
Property Measured: inhibition (%)

CCOC(=O)/C=C1\CC(=O)Nc2nonc2N1 | -22.6
O=C(NC1=NCCS1)c1nc(-c2ccccc2)n(-c2ccccc2)n1 | -60.7
COc1ccc(C2C(C(=O)N3CCCC3)c3cc(OC)c(OC)cc3C(=O)N2C)cc1 (stereo not given) | -71.5
CCCCOc1ccc(N(CC(=O)NC2CCCC2)C(=O)CCC(=O)Nc2ccccn2)cc1 | -7.6
CN1C(=O)C(CC(=O)N2CCN(C(c3ccccc3)c3ccccc3)CC2)N(C)C1=O (stereo not given) | 20.6

----------
Method Description: reduction of polyQ htt aggregates in cells – imaging, exon1htt(103Q)mCFP cells, high-content imaging, primary screen (AID 483);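 note: compound exposure lasted 3 days before fixation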
Measurement Conditions: exon1htt(103Q)mCFP cell line, aggregate imaging, at 2 µM; stronger effect = higher value
Property Measured: inhibition of aggregation (%)

COc1cc(NC(=O)Nc2cccc(Cl)c2)c(OC)cc1NC(=O)CN1CCCCC1 | 1
CCn1c(=O)cc(OCC(=O)Nc2nc(C)cs2)c2ccccc21 | -24.7
O=C(NC1CCCCC1)C1CCCN1C(=O)NCc1ccccc1 (stereo unspecified) | 7.5
CCOC(=O)N1CCN(c2c(NCCN(C)Cc3ccccc3)c(=O)c2=O)CC1 | 9.3
Cc1cc(C)nc(SCCS(=O)Cc2ccc(Cl)cc2)n1 (stereo unspecified) | -16.7
Cc1nnc(SCC(=O)N(C(C)C)C(C)C)nc1C | -8.2

----------
Method Description: reduction of polyQ htt aggregates in cells – imaging, exon1htt(103Q)mCFP cells, high-content imaging, primary screen (AID 483);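 note: compound exposure lasted 3 days before fixation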;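 for nuclei count: percent of the per-plate median nuclei count of sample wells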
Measurement Conditions: exon1htt(103Q)mCFP cell line, aggregate imaging, at 2 µM; measured here: cell count, toxicity
Property Measured: nuclei count (%)

S=C(c1cccs1)N1CCCC1 | 105
O=[n+]1cc(-c2ccc(F)cc2)n([O-])c2c1CCC2 | 103
CCCCCc1c(O)nc(SCC(=O)NCC2CCCO2)[nH]c1=O (stereo unspecified) | 108
O=S1(=O)CCC(NS(=O)(=O)/C=C/c2ccccc2)C1 (stereo unspecified) | 119
O=C(Nc1ccccc1N1CCCCC1)c1ncoc1-c1ccc(F)cc1 | 87.1
Cc1cc(=O)oc2cc(OCC#N)ccc12 | 95.4
